# System: HUVEC
# method_summary: cells
# condition_details: Homo sapiens
# Description: Inhibition of VEGF-induced proliferation of HUVEC cells
readout_kind: pIC50
Expect pIC50 as a plain number equal to -log10 of the molar concentration.

Some entries whose results are on file:
COc1cc2nccc(Oc3ccc4c(C(=O)Nc5ccccc5)cccc4c3)c2cc1OC: 9.10
COc1cc2nccc(Oc3ccc4c(C(=O)Nc5ccc(Cl)c(C(F)(F)F)c5)cccc4c3)c2cc1OC: 6.61
CCCNC(=O)c1cccc2cc(Oc3ccnc4cc(OC)c(OC)cc34)ccc12: 8.15

Incoming: Consider the molecule COc1cc2nccc(Oc3ccc4c(C(=O)Nc5ccc(C(C)(C)C)cc5)cccc4c3)c2cc1OC and give its measured pIC50.
Outgoing: 7.20

Incoming: Similarly, O=C(Nc1ccc(Cl)cc1)c1cccc2cc(Oc3ccncc3)ccc12 ?
Outgoing: 6.66

----------
# Tested on: HUVEC
# method_summary: cells
# condition_details: Homo sapiens
readout_kind: pIC50
Expect pIC50 as a plain number equal to -log10 of the molar concentration.

Some entries whose results are on file:
COc1cc2nccc(Oc3ccc4c(C(=O)Nc5cccc(Cl)c5)cccc4c3)c2cc1OC: 8.29
O=C(Nc1ccc(Cl)cc1)c1cccc2cc(Oc3ccnc4ccccc34)ccc12: 7.47

Incoming: Consider the compound COc1cc2nccc(Oc3ccc4c(C(=O)Nc5cc(C(C)(C)C)on5)cccc4c3)c2cc1OC and give its measured pIC50.
Outgoing: 7.17
